- system-under-test: SNX27, Q96L92
- assay-summary: holdup assay
- Design: key: below the threshold = too weak to quantify, mostly under pKd 3.1 to 4
- conditions: plain residues with an end cap or a label only (N-terminal biotin on a linker: ado-ado)
Catalogue of binders with associated pKd

Check out these entries, answers already filled in.
1. NIAESLESLV [PTPRZ1, P23471] = 5.09
2. TISFTQTSQF [SLC1A1, P43005] = 5.06

Req: What pKd value was documented for this binder, VKRNSKETVV [MARCHF3, Q86UD3] ?
Resp: 5.28

Req: What value of pKd has been reported for the following binder? LKDDELKTKL [SLCO1A2, P46721]
Resp: 3.8

Numbers sourced from paper PMC9482650.
